# System: ATS95
# protocol.description: qHTS profiling for inhibitors of Plasmodium falciparum proliferation (AID 504749); further: nearly all actives have a fitted effect of over 60% in size
# conditions.used: P. falciparum in erythrocytes, SYBR Green DNA, 72 h; series mostly up to 28.7 µM
Inconclusive results are not listed. Active and inactive are the calls of the source. The call rests on the fitted dose curve; in most records, active means well fitted inhibition curve with a large enough effect; inconclusive means small, poorly fitted or top-dose-only effect; inactive means flat fitted curve, though single readings scatter.
Classes used: active, inactive

>>> class_label("Clc1ccc(C(Cn2ccnc2)OCc2ccsc2Cl)c(Cl)c1 (centres undefined)")
"active"
>>> class_label("CC1(C)CCC(C)(C)c2cc(NC(=O)c3ccc(C(=O)O)cc3)ccc21")
"inactive"
>>> class_label("Nc1cccc2c1CN(C1CCC(=O)NC1=O)C2=O (centres undefined)")
"inactive"
>>> class_label("CC[C@]1(O)C[C@H]2CN(CCc3c([nH]c4ccccc34)[C@@](C(=O)OC)(c3cc4c(cc3OC)N(C=O)[C@H]3[C@@](O)(C(=O)OC)[C@H](OC(C)=O)[C@]5(CC)C=CCN6CC[C@]43[C@@H]65)C2)C1")
"active"
>>> class_label("Cc1ccc(C)c(OCCCC(C)(C)C(=O)O)c1")
"inactive"
>>> class_label("C[C@]12CCC(=O)C=C1CC[C@@H]1[C@H]2[C@@H](O)C[C@@]2(C)[C@H]1CC[C@]2(O)C(=O)CO")
"inactive"
>>> class_label("Nc1ccn([C@@H]2O[C@H](CO)[C@@H](O)C2O)c(=O)n1 (some centres undefined)")
"inactive"
>>> class_label("Cc1c(OCC(F)(F)F)ccnc1CS(=O)c1nc2ccccc2[nH]1 (centres undefined)")
"inactive"
>>> class_label("COC1=C(OC)C(=O)C(CCCCCCCCCCO)=C(C)C1=O")
"inactive"

###

# tgt: Luciferin 4-monooxygenase (Photinus pyralis) (UniProt P08659)
# Sequence (P08659 whole entry, looked up): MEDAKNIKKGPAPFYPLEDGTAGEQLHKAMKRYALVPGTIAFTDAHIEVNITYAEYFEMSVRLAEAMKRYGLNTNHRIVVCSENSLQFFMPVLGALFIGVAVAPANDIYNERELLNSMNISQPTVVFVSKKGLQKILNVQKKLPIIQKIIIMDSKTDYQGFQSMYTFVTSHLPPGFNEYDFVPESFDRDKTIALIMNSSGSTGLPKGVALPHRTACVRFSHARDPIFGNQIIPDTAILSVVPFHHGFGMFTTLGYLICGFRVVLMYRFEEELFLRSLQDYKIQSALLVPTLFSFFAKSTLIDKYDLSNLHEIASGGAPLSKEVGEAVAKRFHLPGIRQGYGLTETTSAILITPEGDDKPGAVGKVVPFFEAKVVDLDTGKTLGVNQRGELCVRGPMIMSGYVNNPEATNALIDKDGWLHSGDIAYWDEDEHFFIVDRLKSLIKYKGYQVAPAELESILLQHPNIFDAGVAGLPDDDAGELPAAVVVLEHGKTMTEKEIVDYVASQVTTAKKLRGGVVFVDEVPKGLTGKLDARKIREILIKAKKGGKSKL
# protocol.description: Biochemical firefly luciferase enzyme assay for NPC (AID 624030);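 further: purified P. pyralis luciferase at 10 nM with luciferin and ATP substrate; 0% = DMSO and -100% = full luciferase inhibition by PTC124 control; nearly all actives have a fitted effect of over 70% in size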
# conditions.used: purified P. pyralis luciferase, luminescence, 5 min; series mostly up to 58.6 µM
Inconclusive results are not listed. Active and inactive are the calls of the source. The call rests on the fitted dose curve; in most records, active means well fitted inhibition curve with a large enough effect; inconclusive means small, poorly fitted or top-dose-only effect; inactive means flat fitted curve, though single readings scatter.
parameter.measured: outcome

>>> observed_measurement("COc1cc(C(C)=O)ccc1OCCCN1CCC(c2noc3cc(F)ccc23)CC1")
"inactive"
>>> observed_measurement("Cc1cc(C2CCCCC2)n(O)c(=O)c1")
"inactive"
>>> observed_measurement("COC1=C(OC)C(=O)C(CCCCCCCCCCO)=C(C)C1=O")
"inactive"
>>> observed_measurement("CCCOc1ccc2nc(NC(=O)OC)[nH]c2c1")
"inactive"
>>> observed_measurement("COc1c2occc2cc2ccc(=O)oc12")
"inactive"
>>> observed_measurement("CC[C@]1(O)C[C@H]2CN(CCc3c([nH]c4ccccc34)[C@@](C(=O)OC)(c3cc4c(cc3OC)N(C=O)[C@H]3[C@@](O)(C(=O)OC)[C@H](OC(C)=O)[C@]5(CC)C=CCN6CC[C@]43[C@@H]65)C2)C1")
"inactive"

###

# protocol.description: Quantitative High-Throughput drug screen in 47 multiple myeloma cell lines against the NCATS MIPE library collection: XG6_PLB cell viability assay (AID 1919865); further: nearly all actives have a fitted effect of over 40% in size
# conditions.used: XG6 myeloma viability, CellTiter-Glo ATP luminescence, 48 h; series mostly up to 45.8 µM
Results filed as inconclusive are left out. Calls of active or inactive are those of the source. The call rests on the fitted dose curve; in most records, active means well fitted cell-killing curve with a large enough effect; inconclusive means small, poorly fitted or top-dose-only effect, or effect the other way; inactive means no such curve, though single readings can be large or run the other way.
Outcome codes: active, inactive

>>> class_label("COC1=C(OC)C(=O)C(CCCCCCCCCCO)=C(C)C1=O")
"active"
>>> class_label("CCN(CC)C(=S)SSC(=S)N(CC)CC")
"active"
>>> class_label("O=C(O)c1cc(=O)c2c(OCC(O)COc3cccc4oc(C(=O)O)cc(=O)c34)cccc2o1")
"inactive"
>>> class_label("O=c1c(O)c(-c2ccc(O)cc2O)oc2cc(O)cc(O)c12")
"inactive"
>>> class_label("O=C(O)c1cccnc1Nc1cccc(C(F)(F)F)c1")
"inactive"
>>> class_label("COc1cc(Nc2c(C#N)cnc3cc(OCCCN4CCN(C)CC4)c(OC)cc23)c(Cl)cc1Cl")
"active"
>>> class_label("COc1ccc2cc([C@H](C)C(=O)O)ccc2c1")
"inactive"
>>> class_label("CC(C)c1nc(CN(C)C(=O)N[C@H](C(=O)N[C@@H](Cc2ccccc2)C[C@H](O)[C@H](Cc2ccccc2)NC(=O)OCc2cncs2)C(C)C)cs1")
"inactive"
>>> class_label("CCOc1cc(CC(=O)N[C@@H](CC(C)C)c2ccccc2N2CCCCC2)ccc1C(=O)O")
"inactive"
>>> class_label("COc1ccccc1N1CCN(CCN(C(=O)C2CCCCC2)c2ccccn2)CC1")
"active"

###

# protocol.description: Cytometric Cell-Based qHTS for Inhibitors of the mTORC1 Signaling Pathway in MEF (Tsc2-/-, p53-/-) Cells (AID 2660)
# conditions.used: mTORC1 pathway cytometry; series mostly up to 38.3 µM
Results filed as inconclusive are left out. The source made the active and inactive calls. Calls follow the shape of the dose curve; as a rule, active = well fitted curve in the direction sought with a large enough effect; inconclusive = small, poorly fitted or top-dose-only effect, or another doubt; inactive = no such curve, though single readings can be large or run the other way.
Possible outcomes: active, inactive

>>> class_label("COc1cc2c(cc1OC)C1CC(=O)C(CC(C)C)CN1CC2 (stereo not drawn)")
"inactive"
>>> class_label("CC(=O)N1CCN(c2ccc(OC[C@H]3CO[C@](Cn4ccnc4)(c4ccc(Cl)cc4Cl)O3)cc2)CC1")
"inactive"
>>> class_label("O=c1c(O)c(-c2ccc(O)cc2O)oc2cc(O)cc(O)c12")
"inactive"
>>> class_label("Cc1cccc(C#Cc2ccccc2)n1")
"inactive"
>>> class_label("O=C(c1ccccc1)c1ccc2n1CCC2C(=O)O (stereo not drawn)")
"inactive"
>>> class_label("O=C(CCc1ccc(O)cc1)c1c(O)cc(O)cc1O")
"inactive"
>>> class_label("CCOC(=O)C(C)Oc1cccc2c(=O)n(CC(=O)Nc3ccc4c(c3)OCCO4)ccc12 (stereo not drawn)")
"inactive"
>>> class_label("Nc1nc(N)c(N=O)c(OCC2CCCCC2)n1")
"active"
>>> class_label("CC(C)c1ccc2c(c1)c(SC(C)(C)C)c(CC(C)(C)C(=O)O)n2Cc1ccc(Cl)cc1")
"inactive"
>>> class_label("CC1(C)C(=O)N(CCN2CCC(C(=O)c3ccc(F)cc3)CC2)c2ccccc21")
"inactive"
>>> class_label("COc1ccccc1N1CCN(CCN(C(=O)C2CCCCC2)c2ccccn2)CC1")
"inactive"
>>> class_label("CC1(C)NC(=O)N(c2ccc([N+](=O)[O-])c(C(F)(F)F)c2)C1=O")
"inactive"
>>> class_label("Nc1nc(OCc2ccccc2)c2[nH]cnc2n1")
"inactive"
>>> class_label("CC(=O)O[C@H]1C(=O)[C@@]2(C)C([C@H](OC(=O)c3ccccc3)[C@]3(O)C[C@H](OC(=O)[C@H](O)[C@@H](NC(=O)c4ccccc4)c4ccccc4)C(C)=C1C3(C)C)[C@]1(OC(C)=O)CO[C@@H]1C[C@@H]2O (stereo partly drawn)")
"inactive"
>>> class_label("O=C1c2c(O)cc(O)cc2OC(c2ccc(O)c(O)c2)C1O (stereo not drawn)")
"inactive"
>>> class_label("CN(C)CCCC1(c2ccc(F)cc2)OCc2cc(C#N)ccc21 (stereo not drawn)")
"inactive"
>>> class_label("Oc1ccc(-c2nc(-c3ccc(F)cc3)c(-c3ccncc3)[nH]2)cc1")
"inactive"
>>> class_label("O=C(O)c1cccnc1Nc1cccc(C(F)(F)F)c1")
"inactive"

###

# protocol.description: qHTS profiling of the MIPE4 collection as inhibitors of Plasmodium falciparum (DD2) proliferation (Rep 2) (AID 743346)
# conditions.used: P. falciparum Dd2 in erythrocytes, SYBR Green DNA, 72 h; at 28.5 µM (top of the series) unless noted
parameter.measured: parasite growth, % of control (lower = inhibition)

>>> observed_measurement("S=c1nc[nH]c2nc[nH]c12")
"6.58%"
>>> observed_measurement("CCN(CC)CCOc1ccc(Cc2ccccc2)cc1")
"36.4%"
>>> observed_measurement("CNC[C@@H](O)[C@@H](O)[C@H](O)[C@H](O)CO")
"82.7%"
>>> observed_measurement("Clc1ccc(C(Cn2ccnc2)OCc2ccc(Sc3ccccc3)cc2)c(Cl)c1 (stereo unspecified)")
"18.3%"
>>> observed_measurement("Nc1nc(Cl)nc2c1ncn2[C@H]1C[C@H](O)[C@@H](CO)O1")
"114%"
>>> observed_measurement("O=C(c1ccccc1)c1ccc2n1CCC2C(=O)O (stereo unspecified)")
"121%"

###

# protocol.description: Quantitative High-Throughput drug screen in 47 multiple myeloma cell lines against the NCATS MIPE library collection: NCIH929_DSMZ cell viability assay (AID 1918978); further: nearly all actives have a fitted effect of over 35% in size; further: potency means the concentration at half of the fitted maximal effect
# conditions.used: NCI-H929 myeloma viability, CellTiter-Glo ATP, 48 h; series mostly up to 45.8 µM
Inconclusive results are not listed. Calls of active or inactive are those of the source. Calls follow the shape of the dose curve; as a rule, active = well fitted cell-killing curve with a large enough effect; inconclusive = small, poorly fitted or top-dose-only effect; inactive = no such curve, though single readings can be large or run the other way.
parameter.measured: Potency

>>> observed_measurement("Cc1cc(=O)c2c(O)c3c(O)cc(=O)c4c3c3c(cc(O)c1c23)C(C)(C)C=4O")
"296 nM (active)"
>>> observed_measurement("CCCCC(CC)COC(=O)C(C#N)=C(c1ccccc1)c1ccccc1 (stereo not given)")
"inactive"
>>> observed_measurement("Nc1nc(Cl)nc2c1ncn2[C@H]1C[C@H](O)[C@@H](CO)O1")
"590 nM (active)"
>>> observed_measurement("CCCOc1ccc2nc(NC(=O)OC)[nH]c2c1")
"1480 nM (active)"
>>> observed_measurement("CCC1=C(C)CN(C(=O)NCCc2ccc(S(=O)(=O)NC(=O)NC3CCC(C)CC3)cc2)C1=O (stereo not given)")
"inactive"
>>> observed_measurement("O=C(O)c1cccc(-c2noc(-c3ccccc3F)n2)c1")
"inactive"
>>> observed_measurement("Nc1nc(N)c(N=O)c(OCC2CCCCC2)n1")
"5260 nM (active)"
>>> observed_measurement("COC(=O)C1=C(C)NC(C)=C(C(=O)OC(C)C)C1c1cccc2nonc12 (stereo not given)")
"2640 nM (active)"
>>> observed_measurement("COc1ccccc1N1CCN(CCN(C(=O)C2CCCCC2)c2ccccn2)CC1")
"8330 nM (active)"
>>> observed_measurement("CC1=C(C(=O)O)N2C(=O)[C@@H](NC(=O)[C@H](N)C3=CCC=CC3)[C@H]2SC1")
"inactive"

Source listed as PubChem BioAssay (NCATS).
